B1: Advillin, residues 785 to 819; numbered along this chain, O75366 (parent)
chain: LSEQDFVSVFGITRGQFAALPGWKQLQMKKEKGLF

- Variants of: B1
- measurement description: abundance fitness (aPCA) (normalised: wild type 0, dead -1); higher = more abundant; growth selection in yeast, the domain comes from the species named
- experimental context: Homo sapiens
Would you kindly list abundance fitness for each of these variants?

Recall and state the measured abundance fitness for G22L . -0.074

Please supply the value of reported abundance fitness for the item W23E 0.081

Note abundance fitness for the variant shown: G33T -0.308

Identify measured abundance fitness associated with R14E -0.024

// fetch abundance fitness given entry L34T 0.143

Supply recorded abundance fitness for G15H here. 0.008

Look up and state reported abundance fitness for L26Q 0.12

Give abundance fitness for P21H -0.534

For the variant E31K , report abundance fitness. -0.271

Quote abundance fitness reported for F17M please. -0.249

Please give the documented abundance fitness of F17A -0.389

# return recorded abundance fitness for input P21L -0.509

Tell me abundance fitness reported for A18E 0.214

Given Q16L , respond with its abundance fitness. -0.382

Hello, please tell me recorded abundance fitness for this one: I12Q -0.897

Output abundance fitness of M28V -1.03

Consider the variant F17Y and give its recorded abundance fitness. -0.969

Entry F17L needs its abundance fitness filled in; supply it. -0.476

Give abundance fitness for the following variant: L26R -0.033

Answer with the recorded abundance fitness of V7D only. -0.085

Given the variant G22S , write its reported abundance fitness. -0.108

Annotate the variant G33E with its measured abundance fitness. -0.032

Give reported abundance fitness value for K29C -0.024

Look up and report measured abundance fitness for this entry: Q25G -0.568

Give recorded abundance fitness. E3D 0.103

Consider the variant L26G and give its recorded abundance fitness. -0.146

Dear colleague, please send me the reported abundance fitness for D5K when you can. -0.146

Retrieve abundance fitness measured for S8M and print it. 0.003

Identify the reported abundance fitness for the following entry. L26K 0.068

Quick one: give measured abundance fitness for D5Y -0.782

Give abundance fitness for L34C 0.355

Hello, please tell me recorded abundance fitness for this one: E3A -0.258

Look up and state reported abundance fitness for F35V 0.141

Give recorded abundance fitness. F10S -0.383

Given E31P , respond with its abundance fitness. -0.645

Indicate its recorded abundance fitness; the variant in question is L20T -0.424

Indicate the recorded abundance fitness value for this variant: G15C -0.152

Answer with the recorded abundance fitness for the variant listed here: M28T -1.03

Give the value of abundance fitness reported for the following: S2K -0.127

Using known records, supply abundance fitness for G22F -0.138

For A18N , write its abundance fitness. 0.154

Answer with reported abundance fitness of A19F -0.245

Give the reported value of abundance fitness for this record: F6G -1.08

For F10Y , write its abundance fitness. -0.016

Tell me its abundance fitness given W23T as the entry. -0.228

Find the measured abundance fitness of T13F and report it. -0.368

Give reported abundance fitness value for A18P -0.438

Report abundance fitness for L34V -0.122

Provide measured abundance fitness value, entry: I12E -0.592

Give abundance fitness for K32Q -0.122

Find the measured abundance fitness of I12W and report it. -0.999

# return recorded abundance fitness for input E31R -0.464

Please list abundance fitness recorded for the variant G15W -0.395

Indicate the recorded abundance fitness value for this variant: F6E -0.906

Please list abundance fitness recorded for the variant P21E -0.246

Provide abundance fitness value for the following variant: F10K -0.319

Supply measured abundance fitness of K24N in your reply. -0.433

Read the entry F10Q and write its reported abundance fitness. -0.59

Note abundance fitness for the variant shown: T13C -0.255

Write down abundance fitness measured for item L26H -0.132

Tell us which abundance fitness value is on record for G33P 0.191

Given the variant S8N , write its reported abundance fitness. -0.329

State its abundance fitness: F6Y -0.224

Identify the reported abundance fitness for the following entry. A19L -0.137

Please report abundance fitness for the following variant: F35K -1

Item S8E : provide abundance fitness 0.119

Supply abundance fitness value. Item: Q25M -0.507

Quick one: give measured abundance fitness for G11S -0.353

Given the variant Q16Y , write its reported abundance fitness. -0.252

Report measured abundance fitness; entry is Q16I -0.396

State, in one line, measured abundance fitness of Q4A -0.064

Return reported abundance fitness. Input variant: F10C -0.31

Recall and state the measured abundance fitness for G22W . -0.405

Dear colleague, please send me the reported abundance fitness for K30R when you can. 0.033

Give a short answer stating reported abundance fitness for F6S . -0.488

Read off the recorded abundance fitness for E31Y -0.746

Give me measured abundance fitness, please, for this variant: G22I -0.162

Return the recorded abundance fitness value; entry: I12A -0.445

Quote abundance fitness reported for G11L please. -1.05

Tell me its abundance fitness given L34W as the entry. 0.019

Please look at this variant and report its abundance fitness: T13S -0.199

Please look at this variant and report its abundance fitness: Q4P -0.076

Identify abundance fitness associated with the variant P21S -0.225

Using the record for G11E , state its measured abundance fitness. -0.65

// fetch abundance fitness given entry E3H -0.323

Dear colleague, please send me the reported abundance fitness for I12Y when you can. -0.306

Query abundance fitness for G33K -0.325

Give the value of abundance fitness reported for the following: M28H -0.549

Please supply the value of reported abundance fitness for the item A19G -0.114

Consider the variant V9P . State its measured abundance fitness. -0.632

Output abundance fitness of K30E 0.147

Reference for the values: the Human Domainome abundance scans (Beltran et al. 2025)
